B1: tRNA (parent)
chain: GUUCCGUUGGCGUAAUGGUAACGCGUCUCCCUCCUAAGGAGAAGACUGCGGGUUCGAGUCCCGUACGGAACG

# Variants of: B1
# test method notes: yeast fitness relative to wild type (ratio to wild type); higher = fitter; tRNA-Arg(CCU), competitive growth, 37 C, YPD
This sample holds only a part of the variants without activity.
readout name: yeast fitness

polymer sequence: GUUUCAUUGGCGUAAUGGUAACGCGUCUCCCUCCUAAGGAGAAGACUGCGGGUUCGAGUCCCGUACGGAACG [C4U G6A]
readout name: yeast fitness
relation sign: =
result number: 0.901
--
polymer sequence: GUUCCGUUGGCGUAAUGGUAACGCGUCUCCCUGCUAAGGAGAAGACUGCGGGUUCGAGUCACGUACGGAACG [C33G C61A]
readout name: yeast fitness
relation sign: =
result number: 0.607
--
polymer sequence: GUUCCGUUGGCGUAAUGGUAAGGCGUCUCCCUCCUAAGAAGAAGACUGCGGGUUCGAGUCCCGUACCGAACG [C22G G39A G67C]
readout name: yeast fitness
relation sign: =
result number: 0.526
--
polymer sequence: GUUCCGUUGGCGUAAUGGUAACGCGUCUCCCUCCUACCGAGAAGACUGCGGGUUCGAGUCCCGUACGGAACG [A37C G38C]
readout name: yeast fitness
relation sign: =
result number: 0.502
--
polymer sequence: GUUCGGUUGGCGUAAUGGUAUCGCGUUGCCCUGCUGAGGAGAAGACUGCGGGUUCGAGUCCCGUACGGAACG [C5G A21U C27U U28G C33G A36G]
readout name: yeast fitness
relation sign: ≤
result number: 0.5
--
polymer sequence: GUUCCGUUGGCAUAAUGGUAACGCGUCUCCCUCCUAAGGAGAAGACUGCGGAUUCGAGUCCCGUACGGAACG [G12A G52A]
readout name: yeast fitness
relation sign: =
result number: 0.688
--
polymer sequence: GUUCCGUUCGCGAAAUGGUAACGCAUCUCCCUCCUAAGGCGAAGACUGCGGGUUCGCAUCACGUACAGAACG [G9C U13A G25A A40C A57C G58A C61A G67A]
readout name: yeast fitness
relation sign: ≤
result number: 0.5
--
polymer sequence: GUUGCGUGGGCGUAAUGGUAACGCGUGUCCCUCCUAAGGAGAAGACUGCGGGUUCGAGUCCCGUACGGAACG [C4G U8G C27G]
readout name: yeast fitness
relation sign: =
result number: 0.567
--
polymer sequence: GUUCCGUUGGCGUAAUGGUAACACGUCUCUCUCCUAAGGAGAAGACUGCGGGUUGGCGUCACGUACGGAACG [G23A C30U C55G A57C C61A]
readout name: yeast fitness
relation sign: ≤
result number: 0.5
--
polymer sequence: GUUCCGUUGGCAUAAUGGUAACGGGUCUCCCUCCUAAGGCGGCGAUUGCGGGUUCGAGUCCCGUACGCUACG [G12A C24G A40C A42G A43C C46U G68C A69U]
readout name: yeast fitness
relation sign: ≤
result number: 0.5
--
polymer sequence: GUUCCGUUGGCGUAAUGGUAACGCGUCCCCCUCCUAACGAGAAGUCUGCGGGUUCGAGUCCCGUACGACACG [U28C G38C A45U G68A A69C]
readout name: yeast fitness
relation sign: ≤
result number: 0.5
--
polymer sequence: GAUCCGUUGGCGUAAUGGUAACGCGUCUCCCACCUAAGGAGAAGACUGCGGGUUCGAGUCCCGUACGGAACG [U2A U32A]
readout name: yeast fitness
relation sign: =
result number: 0.72
--
polymer sequence: GUUCCGUUGGCGUAAUGGUAACGCGUCUCCCUCCUAAGGAGAAGACUGCGGGUUCGAGUCCCGUGAGGAACG [A65G C66A]
readout name: yeast fitness
relation sign: =
result number: 0.716
--
polymer sequence: GUUCCGUUGGCGGAAUGGUAACGCGUCUCCCUCCUAAGGAUAAGACUGCGGGUUCGAGUCCCGUAGGGAACG [U13G G41U C66G]
readout name: yeast fitness
relation sign: ≤
result number: 0.5
--
polymer sequence: GUUCCGUUGGCGUAAUGGUAUCGCGUCUCCCUCGUAAGGAGAAGACUGCGCGUUCGAGUCCCCUCCGGAACG [A21U C34G G51C G63C A65C]
readout name: yeast fitness
relation sign: ≤
result number: 0.5
--
polymer sequence: GUACCGUUGGCGUAAUGGAAACGCGUCUCCCUCCUAAGGAGAAGACUGCGGGUUCGAGUCUCGUACGGAUCG [U3A U19A C61U A70U]
readout name: yeast fitness
relation sign: =
result number: 0.551
--
polymer sequence: GUUCCGUUGACGUAAUGGUAACGCGUCACCCUCCUAAGGAGAAGACUGCGGGUUCGAGUCCCGUACGGAACG [G10A U28A]
readout name: yeast fitness
relation sign: =
result number: 0.633
--
polymer sequence: GUUCCGUUGGCGUAAUGGUAACGCGUCUCCCUCCUAAGGAGAAGACUGAGGGUUCGAGUUCCGUACGCAACG [C49A C60U G68C]
readout name: yeast fitness
relation sign: ≤
result number: 0.5
--
polymer sequence: GUUCCGUUGACAUAAUGGUAACGCGUCUCCCUCCUAAGGAGAAGACUGCGGGAUCGAGUCCCGUACGGAACG [G10A G12A U53A]
readout name: yeast fitness
relation sign: ≤
result number: 0.5
--
polymer sequence: GUUCCGUUGGCGUAAUGGUAACGCGUCUCCCUCCUAAGGGGAAGACUGCGGGUUCGAGUCCCGUACGGACCG [A40G A70C]
readout name: yeast fitness
relation sign: =
result number: 0.946
--
polymer sequence: GUUCCGUUGGCGUAAUGGUAACGCGUCUCCCUCCUAACGAGAAGACUGCGGGUUCGAGCCCCGUACGGAACG [G38C U59C]
readout name: yeast fitness
relation sign: =
result number: 0.711
--
polymer sequence: GUUCCGUUGGCGUAAUGGUAACAGGUCUCCCUCCUAAGGUGAAGACUGCGGGUUCGAGUCCCGUUCGGAACG [G23A C24G A40U A65U]
readout name: yeast fitness
relation sign: ≤
result number: 0.5

Where these numbers come from: the RNAGym collection of RNA variant scans (doi:10.1126/science.aae0568)
